These measurements were taken from ChEMBL document CHEMBL5236573.

- targetOrTestSystem: Alpha-2A adrenergic receptor (Homo sapiens)
- Sequence (whole entry): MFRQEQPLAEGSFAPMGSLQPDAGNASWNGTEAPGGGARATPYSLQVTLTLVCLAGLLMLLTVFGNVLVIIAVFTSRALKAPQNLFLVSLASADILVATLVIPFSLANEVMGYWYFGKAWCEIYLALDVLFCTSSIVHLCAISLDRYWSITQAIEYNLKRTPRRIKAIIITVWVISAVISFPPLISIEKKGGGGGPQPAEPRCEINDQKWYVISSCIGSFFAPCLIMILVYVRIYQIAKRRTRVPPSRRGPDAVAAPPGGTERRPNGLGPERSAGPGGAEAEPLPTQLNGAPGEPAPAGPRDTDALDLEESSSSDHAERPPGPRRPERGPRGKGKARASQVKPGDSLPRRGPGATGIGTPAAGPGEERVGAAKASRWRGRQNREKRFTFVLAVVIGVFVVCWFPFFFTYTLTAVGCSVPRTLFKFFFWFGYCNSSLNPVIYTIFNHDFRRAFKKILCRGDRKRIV
- experimentalDetails: Antagonist activity at alpha2a-adrenoceptor (unknown origin) assessed as reduction in adrenaline-induced response by measuring equilibrium binding constant
- experimentalSetup: filed as antagonist
reportedProperty: Kb (nM)
Give your result in nM as a bare value.

The cases that follow already have their Kb on record.
>  <structureSmiles>
O=C1CCCN1c1cccnc1N1CCN(C[C@H]2COc3ccccc3O2)CC1

>  <unitSpec>
nM

>  <observedMeasurement>
44.9

$$$$
>  <structureSmiles>
CN(C)C(=O)c1nsnc1N1CCN(C[C@H]2COc3ccccc3O2)CC1

>  <unitSpec>
nM

>  <observedMeasurement>
449

$$$$
>  <structureSmiles>
O=C1NCCN1c1nsnc1N1CCN(C[C@H]2COc3ccccc3O2)CC1

>  <unitSpec>
nM

>  <observedMeasurement>
449

$$$$
>  <structureSmiles>
COc1scnc1N1CCN(C[C@H]2COc3ccccc3O2)CC1

>  <unitSpec>
nM

>  <observedMeasurement>
88.3

$$$$
>  <structureSmiles>
CN1CCN(c2nsnc2N2CCN(C[C@H]3COc4ccccc4O3)CC2)C1=O

>  <unitSpec>
nM

>  <observedMeasurement>
449

$$$$

Then this compound:
Ask: Kb lookup needed for O=C1CCCN1c1nsnc1N1CCN(C[C@H]2COc3ccccc3O2)CC1 , thanks.
Result: 282
